# credit: ChEMBL document CHEMBL1157454

Target: Quinolone resistance protein NorA (Staphylococcus aureus)
Assay: Inhibition of NorA efflux pump in Staphylococcus aureus 1199B assessed as fold reduction of ciprofloxacin MIC at 12.5 ug/ml
RECORDED_ENDPOINT: fold reduction
Give the value as a plain number.

> print(dat)
                                  compound                       experimental.target  recorded.endpoint  recorded.result
1       CC(C)=CCC/C(C)=C/C=C/C(=O)N1CCCCC1  Quinolone resistance protein NorA (Staphylococcus aureus)     fold reduction                2
2  CCCCCCCCNC(=O)/C=C/C=C(\C)CC/C=C(\C)C=O  Quinolone resistance protein NorA (Staphylococcus aureus)     fold reduction                2

Asked: Look up fold reduction for this compound: `CC(C)=CCC/C(C)=C/C=C/C(=O)NCc1ccccc1`
Given back: 2

Asked: Look up fold reduction for this compound: `C/C(C=O)=C\CC/C(C)=C/C=C/C(=O)NCc1ccccc1`
Given back: 2

Asked: Look up fold reduction for this compound: `CCCCCCCCNC(=O)/C=C/C=C(\C)CCC=C(C)C`
Given back: 2

Asked: Look up fold reduction for this compound: CC(C)=CCCC(C)C/C=C/C(=O)N1CCCCC1 (stereo not drawn)
Given back: 2

Asked: Look up fold reduction for this compound: COc1ccccc1NC(=O)/C=C/CC(C)CCC=C(C)C (stereo not drawn)
Given back: 2

Asked: Look up fold reduction for this compound: `C/C(C=O)=C\CC/C(C)=C/C=C/C(=O)N(C(C)C)C(C)C`
Given back: 2
